target: ECF27_1331
metricName: fold repression
Keep it simple and answer with nothing but the number.

>  <binder>
AS20_992 (protein) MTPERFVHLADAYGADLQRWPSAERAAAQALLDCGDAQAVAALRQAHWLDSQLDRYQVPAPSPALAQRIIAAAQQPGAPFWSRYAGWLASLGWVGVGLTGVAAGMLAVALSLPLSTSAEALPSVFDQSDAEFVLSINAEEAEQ

>  <testValue>
2.11

$$$$

Sample AS35_3582 (protein) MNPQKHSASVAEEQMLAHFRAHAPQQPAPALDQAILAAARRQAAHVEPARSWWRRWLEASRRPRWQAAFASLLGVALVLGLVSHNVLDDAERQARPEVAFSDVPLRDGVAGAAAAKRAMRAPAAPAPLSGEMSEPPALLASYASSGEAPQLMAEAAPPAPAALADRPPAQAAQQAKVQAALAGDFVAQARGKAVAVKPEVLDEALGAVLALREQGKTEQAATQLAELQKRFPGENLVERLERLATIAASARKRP — what was its fold repression?
7.23

Sample AS25_1643_cl43 (protein) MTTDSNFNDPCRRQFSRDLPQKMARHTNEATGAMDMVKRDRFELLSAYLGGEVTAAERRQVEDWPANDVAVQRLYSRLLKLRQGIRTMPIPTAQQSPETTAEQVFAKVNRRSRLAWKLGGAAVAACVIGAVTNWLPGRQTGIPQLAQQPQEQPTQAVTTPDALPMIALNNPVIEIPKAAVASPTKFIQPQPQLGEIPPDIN — what was its fold repression?
1.96

Sample AS33_423 (protein) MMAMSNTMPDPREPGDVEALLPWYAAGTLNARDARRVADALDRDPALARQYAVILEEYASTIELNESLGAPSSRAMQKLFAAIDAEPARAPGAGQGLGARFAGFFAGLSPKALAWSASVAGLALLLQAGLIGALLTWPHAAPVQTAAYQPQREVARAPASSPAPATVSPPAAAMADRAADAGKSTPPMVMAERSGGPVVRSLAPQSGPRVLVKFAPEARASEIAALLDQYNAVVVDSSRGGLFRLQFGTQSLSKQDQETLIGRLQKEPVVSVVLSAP — what was its fold repression?
8.68
